These measurements were taken from the supplement of paper PMC12067926.

- System: Serratia 1 (Serratia sp. 2015-2462-01)
- TEST METHOD NOTES: relative growth (AUC of 72 h growth curve relative to DMSO control, dAUC) (ratio); higher = more growth (less inhibition), active = hit call of the paper
- CONDITION DESCRIPTION: 20 µM
PARAMETER MEASURED: relative growth
// no unit string in output, number only

Report the value of relative growth obtained on Serratia 1 (Serratia sp. 2015-2462-01) for CC(C)N1C(=O)N(c2ccccc2)CS/C1=N\C(C)(C)C .
0.962

Report the value of relative growth obtained on Serratia 1 (Serratia sp. 2015-2462-01) for COc1cc(OC)nc(NC(=O)NS(=O)(=O)c2ncccc2C(=O)N(C)C)n1 .
1

Report the value of relative growth obtained on Serratia 1 (Serratia sp. 2015-2462-01) for COP(=S)(OC)SCN1C(=O)c2ccccc2C1=O .
0.972

Report the value of relative growth obtained on Serratia 1 (Serratia sp. 2015-2462-01) for N#CC(CCc1ccc(Cl)cc1)(Cn1cncn1)c1ccccc1 (configuration not stated) .
0.921

Report the value of relative growth obtained on Serratia 1 (Serratia sp. 2015-2462-01) for COc1ncc(F)c2nc(S(=O)(=O)Nc3c(F)cccc3F)nn12 .
1.03

Report the value of relative growth obtained on Serratia 1 (Serratia sp. 2015-2462-01) for Nc1c([N+](=O)[O-])ccc(Oc2ccccc2)c1Cl .
0.946

Report the value of relative growth obtained on Serratia 1 (Serratia sp. 2015-2462-01) for Fc1ccc(Oc2ccnc3cc(Cl)cc(Cl)c23)cc1 .
1.01

Report the value of relative growth obtained on Serratia 1 (Serratia sp. 2015-2462-01) for O=[N+]([O-])/N=C1\NCCN1Cc1ccc(Cl)nc1 .
0.968

Report the value of relative growth obtained on Serratia 1 (Serratia sp. 2015-2462-01) for COc1cccc(C(=O)NN(C(=O)c2cc(C)cc(C)c2)C(C)(C)C)c1C .
0.934

Report the value of relative growth obtained on Serratia 1 (Serratia sp. 2015-2462-01) for CC(Oc1ccc(Oc2ncc(C(F)(F)F)cc2Cl)cc1)C(=O)O (configuration not stated) .
0.972

Report the value of relative growth obtained on Serratia 1 (Serratia sp. 2015-2462-01) for CC(Oc1ccc(Oc2nc3ccc(Cl)cc3o2)cc1)C(=O)O (configuration not stated) .
1.04

Report the value of relative growth obtained on Serratia 1 (Serratia sp. 2015-2462-01) for N#Cc1cc(Br)c(O)c(Br)c1 .
0.998

* * *

- System: Community 7
- TEST METHOD NOTES: relative growth (AUC of 72 h growth curve relative to DMSO control, dAUC) (ratio); higher = more growth (less inhibition), active = hit call of the paper
- CONDITION DESCRIPTION: 20 µM
PARAMETER MEASURED: relative growth
// no unit string in output, number only

Please indicate relative growth recorded for CCc1cccc(C)c1N(C(=O)CCl)[C@@H](C)COC
1.12

Please indicate relative growth recorded for CSc1nnc(C(C)(C)C)c(=O)n1N
1

Please indicate relative growth recorded for CC[C@H](C)C1O[C@]2(C=C[C@@H]1C)C[C@@H]1C[C@@H](C/C=C(\C)[C@@H](O[C@H]3C[C@H](OC)[C@@H](O[C@H]4C[C@H](OC)[C@H](NC)[C@H](C)O4)[C@H](C)O3)[C@@H](C)/C=C/C=C3\CO[C@@H]4[C@H](O)C(C)=C[C@@H](C(=O)O1)[C@]34O)O2 (stereo not given in full)
0.976

Please indicate relative growth recorded for CC1=NNC(=O)N(/N=C/c2cccnc2)C1
0.897

Please indicate relative growth recorded for CCCN(CCC)C(=O)SCc1ccccc1
1.01

* * *

- Tested on: Paenibacillus 1 (Paenibacillus castaneae)
- TEST METHOD NOTES: relative growth (AUC of 72 h growth curve relative to DMSO control, dAUC) (ratio); higher = more growth (less inhibition), active = hit call of the paper
- CONDITION DESCRIPTION: 20 µM
Please go through the items and note down their relative growth.

Report the value of relative growth obtained on Paenibacillus 1 (Paenibacillus castaneae) for COc1cccc(C(=O)NN(C(=O)c2cc(C)cc(C)c2)C(C)(C)C)c1C .
0.926 (inactive)

Report the value of relative growth obtained on Paenibacillus 1 (Paenibacillus castaneae) for ClC1C(Cl)C(Cl)C(Cl)C(Cl)C1Cl (stereo unspecified) .
0.961 (inactive)

Report the value of relative growth obtained on Paenibacillus 1 (Paenibacillus castaneae) for COC(=O)N(OC)c1ccccc1COc1ccn(-c2ccc(Cl)cc2)n1 .
0.944 (inactive)

Report the value of relative growth obtained on Paenibacillus 1 (Paenibacillus castaneae) for COP(N)(=O)SC (stereo unspecified) .
0.194 (active)

Report the value of relative growth obtained on Paenibacillus 1 (Paenibacillus castaneae) for CC(C)N(C(=O)COc1nnc(C(F)(F)F)s1)c1ccc(F)cc1 .
0.899 (inactive)

Report the value of relative growth obtained on Paenibacillus 1 (Paenibacillus castaneae) for Cc1nnc(-c2ccccc2)c(=O)n1N .
0.905 (inactive)

* * *

- Tested on: Community 7
- TEST METHOD NOTES: relative growth (AUC of 72 h growth curve relative to DMSO control, dAUC) (ratio); higher = more growth (less inhibition), active = hit call of the paper
- CONDITION DESCRIPTION: 20 µM
# relative growth >= 0.9 gives Met, anything below gives Not met

Dear colleague, could you confirm whether COC(=O)N(OC)c1ccccc1COc1ccn(-c2ccc(Cl)cc2)n1 has relative growth at or above 0.9?
Met

Dear colleague, could you confirm whether COP(=S)(OC)SCN1C(=O)c2ccccc2C1=O has relative growth at or above 0.9?
Met

Dear colleague, could you confirm whether N#C/N=C1\SCCN1Cc1ccc(Cl)nc1 has relative growth at or above 0.9?
Not met

Dear colleague, could you confirm whether Cc1cc(C)c(C2=C(OC(=O)CC(C)(C)C)C3(CCCC3)OC2=O)c(C)c1 has relative growth at or above 0.9?
Met

Dear colleague, could you confirm whether CCOP(=S)(OCC)Oc1cc(C)nc(C(C)C)n1 has relative growth at or above 0.9?
Met

Dear colleague, could you confirm whether COP(=O)(NC(C)=O)SC (centres undefined) has relative growth at or above 0.9?
Not met

Dear colleague, could you confirm whether C/C(=N\C#N)N(C)Cc1ccc(Cl)nc1 has relative growth at or above 0.9?
Met

Dear colleague, could you confirm whether OC(Cn1cncn1)(c1ccc(F)cc1)c1ccccc1F (centres undefined) has relative growth at or above 0.9?
Not met

Dear colleague, could you confirm whether N#Cc1nn(-c2c(Cl)cc(C(F)(F)F)cc2Cl)c(N)c1[S+]([O-])C(F)(F)F (centres undefined) has relative growth at or above 0.9?
Met

* * *

- Tested on: Arthrobacter 2 (Arthrobacter humicola)
- TEST METHOD NOTES: relative growth (AUC of 72 h growth curve relative to DMSO control, dAUC) (ratio); higher = more growth (less inhibition), active = hit call of the paper
- CONDITION DESCRIPTION: 20 µM
# relative growth >= 0.9 gives class 1, anything below gives class 0

Dear colleague, could you confirm whether COc1ccc(-c2ccccc2)cc1NNC(=O)OC(C)C has relative growth at or above 0.9?
class 0

Dear colleague, could you confirm whether CC(C)OC(=O)Nc1cccc(Cl)c1 has relative growth at or above 0.9?
class 1

Dear colleague, could you confirm whether CNC(=O)c1cc(C#N)cc(C)c1NC(=O)c1cc(Br)nn1-c1ncccc1Cl has relative growth at or above 0.9?
class 1

Dear colleague, could you confirm whether CC(COc1ccc(Oc2ccccc2)cc1)Oc1ccccn1 (configuration not stated) has relative growth at or above 0.9?
class 1

Dear colleague, could you confirm whether COC(=O)N(OC)c1ccccc1COc1ccn(-c2ccc(Cl)cc2)n1 has relative growth at or above 0.9?
class 1

Dear colleague, could you confirm whether CNC(=O)c1cc(Cl)cc(C)c1NC(=O)c1cc(Br)nn1-c1ncccc1Cl has relative growth at or above 0.9?
class 0

Dear colleague, could you confirm whether N#C/N=C1\SCCN1Cc1ccc(Cl)nc1 has relative growth at or above 0.9?
class 1

Dear colleague, could you confirm whether COC(=O)Nc1nc2ccccc2[nH]1 has relative growth at or above 0.9?
class 1

Dear colleague, could you confirm whether Cc1cc(C)c(C2=C(OC(=O)CC(C)(C)C)C3(CCCC3)OC2=O)c(C)c1 has relative growth at or above 0.9?
class 0

Dear colleague, could you confirm whether CC(C)(C)[C@@H](O)[C@H](Oc1ccc(Cl)cc1)n1cncn1 has relative growth at or above 0.9?
class 1

Dear colleague, could you confirm whether N#Cc1cc(Br)c(O)c(Br)c1 has relative growth at or above 0.9?
class 0

* * *

Please go through the items and note down their relative growth.
- Tested on: Community 8
- TEST METHOD NOTES: relative growth (AUC of 72 h growth curve relative to DMSO control, dAUC) (ratio); higher = more growth (less inhibition), active = hit call of the paper
- CONDITION DESCRIPTION: 20 µM
// no unit string in output, number only

Please indicate relative growth recorded for OC(Cn1cncn1)(c1ccc(F)cc1)c1ccccc1F (centres undefined)
1.04

Please indicate relative growth recorded for N#Cc1c(Cl)c(Cl)c(Cl)c(C#N)c1Cl
1.02

Please indicate relative growth recorded for CCC(=O)Nc1ccc(Cl)c(Cl)c1
1.06

Please indicate relative growth recorded for O=C(O)CNCP(=O)(O)O
1.04

Please indicate relative growth recorded for COCC(=O)N(c1c(C)cccc1C)C(C)C(=O)OC (centres undefined)
0.993

Please indicate relative growth recorded for N#C/N=C1\SCCN1Cc1ccc(Cl)nc1
1.07

Please indicate relative growth recorded for COC(=O)Nc1nc2ccccc2[nH]1
0.959

Please indicate relative growth recorded for CCc1nn(C)c(C(=O)NCc2ccc(Oc3ccc(C)cc3)cc2)c1Cl
1.03

Please indicate relative growth recorded for C[C@@H]1[C@@H](c2ccc(Cl)cc2)SC(=O)N1C(=O)NC1CCCCC1
1.05

Please indicate relative growth recorded for N#CCNC(=O)c1cnccc1C(F)(F)F
0.986

Please indicate relative growth recorded for Cc1nnc(-c2ccccc2)c(=O)n1N
0.974

Please indicate relative growth recorded for COCC(=O)N(c1c(C)cccc1C)[C@H](C)C(=O)OC
1.06

Please indicate relative growth recorded for O=C(Nc1ccccc1-c1ccc(Cl)cc1)c1cccnc1Cl
1.03

Please indicate relative growth recorded for C[N+](C)(C)CCCl
0.988

Please indicate relative growth recorded for COC(=O)N(C(=O)N1CO[C@@]2(C(=O)OC)Cc3cc(Cl)ccc3C2=N1)c1ccc(OC(F)(F)F)cc1
1.02

Please indicate relative growth recorded for CNC(=O)c1cc(C#N)cc(C)c1NC(=O)c1cc(Br)nn1-c1ncccc1Cl
0.986

Please indicate relative growth recorded for Nc1c(Cl)c(F)nc(OCC(=O)O)c1Cl
1.04

Please indicate relative growth recorded for CCCCOC(=O)[C@H](C)Oc1ccc(Oc2ccc(C#N)cc2F)cc1
0.995

Please indicate relative growth recorded for CC(C)(C)C(O)(CCc1ccc(Cl)cc1)Cn1cncn1 (centres undefined)
0.995

Please indicate relative growth recorded for CS(=O)(=O)c1ccc(C(=O)C2C(=O)CCCC2=O)c([N+](=O)[O-])c1
1.06

Please indicate relative growth recorded for Cc1cc(C(F)(C(F)(F)F)C(F)(F)F)ccc1NC(=O)c1cccc(I)c1C(=O)NC(C)(C)CS(C)(=O)=O
1.07

Please indicate relative growth recorded for CC(Oc1ccc(Oc2ncc(C(F)(F)F)cc2Cl)cc1)C(=O)O (centres undefined)
1.04

Please indicate relative growth recorded for COC(=O)N(OC)c1ccccc1COc1ccn(-c2ccc(Cl)cc2)n1
1.04

Please indicate relative growth recorded for CC(C1CC1)C(O)(Cn1cncn1)c1ccc(Cl)cc1 (centres undefined)
1.04
